Molecular target: IRAK4 (Homo sapiens, UniProt Q9NWZ3)
Construct: Degradation of IRAK4 in OCI-LY10 was quantitatively measured using Meso Scale Discovery technology; endogenous in cells; host or cells: OCI-LY10
Assay: IRAK4 MSD Degradation in OCI-LY10
Assay type: cell-based
Settings: OCI-LY10 cells, 24 hrs incubation, MSD; read-out: IRAK4 degradation in OCI-LY10 at 24 hrs: DC50
measurement-name: DC50

Reference set (5 entries):
Cn1c(=O)n(C2CCC(=O)NC2=O)c2ccc(F)c(N3CCN(C[C@H]4CC[C@H](n5cc6cc(NC(=O)c7cccc(C#N)n7)ccc6n5)CC4)CC3)c21 (stereo partly shown) [I-686] ... 10 to 100 nM
COc1ccc2c(c1C1CCN(C[C@H]3CC[C@H](n4cc5cc(NC(=O)c6cccc(C(F)(F)F)n6)ncc5n4)CC3)CC1(F)F)n(C)c(=O)n2C1CCC(=O)NC1=O (stereo partly shown) [I-448] ... > 200 nM
Cn1c(=O)n(C2CCC(=O)NC2=O)c2cccc(C#CCN3CCN(C[C@H]4CC[C@H](n5cc(NC(=O)c6cnn7ccc(N8CCCC89CC9)nc67)c(C(F)F)n5)CC4)CC3)c21 (stereo partly shown) [I-222] ... 10 to 100 nM
Cn1c(=O)n(C2CCC(=O)NC2=O)c2cccc([C@H]3CCN(C[C@H]4CC[C@H](n5cc6cc(NC(=O)c7cccc(C(F)F)n7)ccc6n5)CC4)C[C@@H]3F)c21 (stereo partly shown) [I-630] ... > 200 nM
Cc1cccc(C(=O)Nc2ccc3nn([C@H]4CC[C@H](CN5CC[C@H](c6cccc7c6n(C)c(=O)n7C6CCC(=O)NC6=O)[C@@H](F)C5)CC4)cc3c2)n1 (stereo partly shown) [I-622] ... > 200 nM

Please give the measured DC50 for this compound: CN(CC[C@H]1CC[C@H](n2cc(NC(=O)c3cnn4cccnc34)c(C(F)F)n2)CC1)C1CCN(c2cccc3c2n(C)c(=O)n3C2CCC(=O)NC2=O)CC1(F)F (stereo partly shown) [I-503] > 200 nM

I would be grateful if you could share the reported DC50 for Cn1c(=O)n(C2CCC(=O)NC2=O)c2cccc(C3CCN(C[C@H]4CC[C@H](n5cc6cc(NC(=O)c7cccc(C#N)n7)c(C(C)(C)O)cc6n5)CC4)CC3(F)F)c21 (stereo partly shown) [I-618] . < 10 nM

Quick check: DC50 of C[C@@H]1CN(c2ccn3ncc(C(=O)Nc4cn([C@H]5CC[C@H](CN6CCN(CC#Cc7cccc8c7n(C)c(=O)n8C7CCC(=O)NC7=O)CC6)CC5)nc4C(F)F)c3n2)C[C@H](C)O1 (stereo partly shown) [I-429] ? > 200 nM

Item under review: CN(C[C@H]1CC[C@H](n2cc(NC(=O)c3cnn4cccnc34)c(C(F)F)n2)CC1)C1CCN(c2cccc3c(N4CCC(=O)NC4=O)cncc23)CC1 [I-13] . Reported DC50? > 200 nM

###

Target: IRAK4 (Homo sapiens, UniProt Q9NWZ3)
Construct: Degradation of IRAK4 in OCI-LY10 was quantitatively measured using Meso Scale Discovery technology; endogenous in cells; host or cells: OCI-LY10
Assay: IRAK4 MSD Degradation in OCI-LY10
Type: cell-based
Conditions: OCI-LY10 cells, 4 hrs incubation, MSD; read-out: IRAK4 degradation in OCI-LY10 at 4 hrs: DC50
Method: Degradation of IRAK4 in OCI-LY10 was quantitatively measured using Meso Scale Discovery technology. […] Compounds were then added to the assay plates with a final top concentration of 1 to 10 μM in a 1:3 dilution series with total of 8 doses. […] The assay plates were then incubated at room temperature for 1 hour, washed 3 times with 150 μL/well TBST buffer, and 150 μL/well MSD reading buffer (Meso Scale Discovery catalog number R92TC-2) was added. […]
measurement-name: DC50

Cn1c(=O)n(C2CCC(=O)NC2=O)c2cccc(C#CCN3CCN(C[C@H]4CC[C@H](n5cc(NC(=O)c6cnn7ccc(N8CCC9(CCOCC9)C8)nc67)c(C(F)F)n5)CC4)CC3)c21 (some centres unmarked) ... > 0.2 µM

// DC50 lookup, key: COc1nc(NC(=O)c2cccc(C(F)(F)F)n2)cc2cn([C@H]3CC[C@H](CN4CC[C@@H](c5cccc6c5n(C)c(=O)n6C5CCC(=O)NC5=O)[C@H](F)C4)CC3)nc12 (some centres unmarked) > 0.2 µM

# DC50 lookup, item Cn1c(=O)n(C2CCC(=O)NC2=O)c2cccc(CC[C@@H]3CN(C[C@H]4CC[C@H](n5cc(NC(=O)c6cnn7ccc(N8C[C@H]9C[C@@H]8CO9)nc67)c(C(F)F)n5)CC4)CCO3)c21 (some centres unmarked) > 0.2 µM

# input compound: C[C@H]1CN(C[C@H]2C[C@H](n3cc(NC(=O)c4cnn5ccc(N6C[C@H]7C[C@@H]6CO7)nc45)c(C(F)F)n3)C2)CC[C@@H]1OCC#Cc1cccc2c(N3CCC(=O)NC3=O)cncc12 ; wanted: its DC50 < 0.01 µM

State the recorded DC50 for this entry: CN(C[C@H]1CC[C@H](n2cc(NC(=O)c3cnn4cccnc34)c(C(F)F)n2)CC1)C1C(F)CN(c2cccc3c2n(C)c(=O)n3C2CCC(=O)NC2=O)CC1F (some centres unmarked) > 0.2 µM

###

Listed next: entries and their corresponding DC50.
Molecular target: IRAK4 (Homo sapiens, UniProt Q9NWZ3)
Construct: Degradation of IRAK4 in OCI-LY10 was quantitatively measured using Meso Scale Discovery technology; endogenous in cells; host or cells: OCI-LY10
Assay: IRAK4 MSD Degradation in OCI-LY10
Format: cell-based
Settings: OCI-LY10 cells, 24 hrs incubation, MSD; read-out: IRAK4 degradation in OCI-LY10 at 24 hrs: DC50

Below are worked cases with known answers.
Cn1c(=O)n(C2CCC(=O)NC2=O)c2cccc(C3=CCN(C[C@H]4CC[C@H](n5cc6cc(NC(=O)c7cccc(C(F)(F)F)n7)c(C(F)F)cc6n5)CC4)CC3(F)F)c21 (stereo partly shown) ... > 0.2 µM
O=C1CCC(c2cccc3c(C#CCN4CCN(C[C@H]5CC[C@@H](n6cc(NC(=O)c7cnn8ccc(N9C[C@H]%10C[C@@H]9CO%10)nc78)c(C(F)F)n6)CC5)CC4)cccc23)C(=O)N1 (stereo partly shown) ... 0.01 to 0.1 µM
C[C@H]1CN(c2ccn3ncc(C(=O)Nc4cn([C@H]5CC[C@H](CN(C)C6CN(c7cccc8c7n(C)c(=O)n8C7CCC(=O)NC7=O)C6)CC5)nc4C(F)F)c3n2)CCO1 (stereo partly shown) ... > 0.2 µM

Fill blank: measured DC50 of the compound Cn1c(=O)n(C2CCC(=O)NC2=O)c2cccc(N3CCN([C@@H]4CCN(C[C@H]5CC[C@H](n6cc(NC(=O)c7cnn8ccc(N9C[C@H]%10C[C@@H]9CO%10)nc78)c(C(F)F)n6)CC5)CC4(F)F)CC3)c21 (stereo partly shown) [I-720] is ____. < 0.01 µM

###

Target: IRAK4 (Homo sapiens)
Construct: Degradation of IRAK4 in OCI-LY10 was quantitatively measured using Meso Scale Discovery technology; endogenous in cells; host or cells: OCI-LY10
Sequence (Q9NWZ3 1-460): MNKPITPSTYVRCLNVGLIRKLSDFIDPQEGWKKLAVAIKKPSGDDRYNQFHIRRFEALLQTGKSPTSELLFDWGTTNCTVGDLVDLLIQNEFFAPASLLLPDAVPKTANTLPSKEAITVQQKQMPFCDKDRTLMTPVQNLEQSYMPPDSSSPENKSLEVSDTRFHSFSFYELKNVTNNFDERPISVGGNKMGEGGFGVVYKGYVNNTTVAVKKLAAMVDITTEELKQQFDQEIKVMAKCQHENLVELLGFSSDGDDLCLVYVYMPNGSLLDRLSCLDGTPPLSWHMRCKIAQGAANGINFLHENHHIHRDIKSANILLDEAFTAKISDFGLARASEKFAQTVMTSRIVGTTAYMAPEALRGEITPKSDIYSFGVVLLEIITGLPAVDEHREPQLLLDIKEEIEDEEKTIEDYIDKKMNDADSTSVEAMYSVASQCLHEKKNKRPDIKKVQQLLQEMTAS
Experiment: IRAK4 MSD Degradation in OCI-LY10
Assay type: cell-based
Settings: OCI-LY10 cells, 24 hrs incubation, MSD; read-out: IRAK4 degradation in OCI-LY10 at 24 hrs: DC50
Each entry below lists one item and its recorded DC50 value.

CN1CCN(c2ccn3ncc(C(=O)Nc4cn([C@H]5CC[C@H](CN6CCN(CC#Cc7cccc8c7n(C)c(=O)n8C7CCC(=O)NC7=O)CC6)CC5)nc4C(F)F)c3n2)CC1 (stereo partly shown) [I-300] ... < 10 nM
CC1CCN(c2ccn3ncc(C(=O)Nc4cn([C@H]5CC[C@H](CN(C)C6CCN(c7cccc8c7n(C)c(=O)n8C7CCC(=O)NC7=O)CC6)CC5)nc4C(F)F)c3n2)CC1 (stereo partly shown) [I-271] ... < 10 nM
Cn1c(=O)n(C2CCC(=O)NC2=O)c2cccc([C@H]3CCN(C[C@H]4CC[C@H](n5cc6cc(NC(=O)c7cccc(C#N)n7)ncc6n5)CC4)C[C@H]3F)c21 (stereo partly shown) [I-639] ... > 200 nM
Cn1c(=O)n(C2CCC(=O)NC2=O)c2cccc(C#CCOC3CCN([C@H]4CC[C@@H](n5cc(NC(=O)c6cnn7ccc(N8C[C@H]9C[C@@H]8CO9)nc67)c(C(F)F)n5)CC4)CC3)c21 (stereo partly shown) [I-420] ... > 200 nM
COc1ccc2c(c1C#CCOC1CCN(C[C@H]3CC[C@H](n4cc(NC(=O)c5cnn6ccc(N7C[C@H]8C[C@@H]7CO8)nc56)c(C(F)F)n4)CC3)CC1)n(C)c(=O)n2C1CCC(=O)NC1=O (stereo partly shown) [I-2] ... > 200 nM
CN(CC1CCN(c2cccc3c2n(C)c(=O)n3C2CCC(=O)NC2=O)CC1)c1ccc(-n2cc(NC(=O)c3cnn4cccnc34)c(C(F)F)n2)cc1 (stereo not shown) [I-373] ... > 200 nM
COc1cc2nn([C@H]3CC[C@H](CN4CCC5(CC4)CCN(c4cccc6c4n(C)c(=O)n6C4CCC(=O)NC4=O)CC5)CC3)cc2cc1NC(=O)c1cncc(SC(F)(F)F)c1 (stereo partly shown) [I-152] ... > 200 nM
CN(CC1(F)CCN(c2cccc3c2n(C)c(=O)n3C2CCC(=O)NC2=O)CC1)C1CCC(n2cc3cc(NC(=O)c4cccc(C(F)(F)F)n4)ncc3n2)CC1 (stereo not shown) [I-787] ... > 200 nM
Cn1c(=O)n(C2CCC(=O)NC2=O)c2cccc(C#CCN3CCN(C[C@H]4CC[C@H](n5cc(NC(=O)c6cnn7ccc(N8CCOC(C(F)F)C8)nc67)c(C(F)F)n5)CC4)CC3)c21 (stereo partly shown) [I-407] ... > 200 nM

Now examine the next entry.
What value of DC50 has been reported for the following compound? Cn1c(=O)n(C2CCC(=O)NC2=O)c2ccc(C3CCN(C[C@H]4CC[C@H](n5cc6cc(NC(=O)c7cccc(C(F)(F)F)n7)ccc6n5)CC4)CC3(F)F)cc21 (stereo partly shown) [I-465] > 200 nM
